target: EPHB2 (UniProt P29323); test: phosphorylation enrichment, bacterial display (enrichment ratio); higher = better substrate or ligand; peptides without Tyr show the background;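 further: 11-residue human phosphosite peptides and single-mutation variants displayed on the E. coli surface, counted by deep sequencing, each peptide's frequency after selection divided by its frequency in the unselected input library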;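 further: frequency after pTyr selection over input frequency; kinase dosed for 20-30% of maximal phosphorylation in three min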
Sequence (P29323 whole entry, looked up): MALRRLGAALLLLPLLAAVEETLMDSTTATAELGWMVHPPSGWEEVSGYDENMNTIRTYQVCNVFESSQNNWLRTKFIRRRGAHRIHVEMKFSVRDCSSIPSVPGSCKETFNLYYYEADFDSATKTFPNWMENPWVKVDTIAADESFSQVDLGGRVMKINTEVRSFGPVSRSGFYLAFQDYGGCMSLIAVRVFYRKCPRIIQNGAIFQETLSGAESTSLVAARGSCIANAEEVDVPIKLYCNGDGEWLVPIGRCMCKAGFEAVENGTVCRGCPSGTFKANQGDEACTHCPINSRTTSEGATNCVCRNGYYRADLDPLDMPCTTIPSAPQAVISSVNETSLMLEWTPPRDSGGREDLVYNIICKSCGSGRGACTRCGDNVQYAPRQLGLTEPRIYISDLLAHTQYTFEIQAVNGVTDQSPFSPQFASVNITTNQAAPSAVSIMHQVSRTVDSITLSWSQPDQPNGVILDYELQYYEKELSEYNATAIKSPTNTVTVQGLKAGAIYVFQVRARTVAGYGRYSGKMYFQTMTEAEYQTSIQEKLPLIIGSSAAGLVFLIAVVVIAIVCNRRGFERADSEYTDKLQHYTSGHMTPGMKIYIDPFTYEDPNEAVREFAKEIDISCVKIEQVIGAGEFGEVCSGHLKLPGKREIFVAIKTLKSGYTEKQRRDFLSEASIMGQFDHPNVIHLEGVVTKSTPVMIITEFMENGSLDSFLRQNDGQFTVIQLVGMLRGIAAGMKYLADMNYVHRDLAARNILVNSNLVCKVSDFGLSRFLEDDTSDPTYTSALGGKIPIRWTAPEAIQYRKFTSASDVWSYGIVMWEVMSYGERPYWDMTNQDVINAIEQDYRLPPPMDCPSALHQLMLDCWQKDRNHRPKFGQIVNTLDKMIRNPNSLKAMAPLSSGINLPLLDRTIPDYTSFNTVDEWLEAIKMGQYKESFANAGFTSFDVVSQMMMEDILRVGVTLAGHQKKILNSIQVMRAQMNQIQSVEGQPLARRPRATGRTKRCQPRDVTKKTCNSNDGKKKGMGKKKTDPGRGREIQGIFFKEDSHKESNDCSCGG
Reported values of phosphorylation enrichment for individual entries

| sequence.code | phosphorylation enrichment |
| --- | --- |
| SVCPDYDLCSV [SQSTM1_Y148] | 0.959 |
| FGSVMYEFVGK [SLC18A1_Y251] | 3.28 |
| ESAAIYNPVIF [RHO_Y301_K296E_YF] | 0.579 |
| FPDFVYKRIKA [DPYSL2_Y479] | 0.468 |
| DDPRRYQKYGY [OAS1_Y362] | 0.544 |

IN: Given the entry VTQEQYELFCE [CBL_Y368_YF] , report its measured phosphorylation enrichment.
OUT: 0.848

IN: Given the entry ALEQKYWALGQ [MAP1A_Y1555] , report its measured phosphorylation enrichment.
OUT: 0.492

IN: Given the entry WFPSTYVEEDE [VAV3_Y842] , report its measured phosphorylation enrichment.
OUT: 0.656

IN: Given the entry FIPSNYVAEDR [FRK_Y104_YF] , report its measured phosphorylation enrichment.
OUT: 0.443

IN: Given the entry NFHRGYHLQVL [CD200R1L_Y138] , report its measured phosphorylation enrichment.
OUT: 0.475

IN: Given the entry RIGRKYKKVRF [F8_Y442] , report its measured phosphorylation enrichment.
OUT: 0.511

Where do these numbers come from? They come from the supplement of paper PMC10065799.
